Listing of recorded selective drug sensitivity score by entry.
- Tested on: COG-LL-319h
- procedure.text: selective drug sensitivity score (sDSS, relative to normal bone marrow) (sDSS (score)); higher = more potent and effective on the cell line relative to normal bone marrow cells;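 also: ALL cell lines in 384-well plates, five doses spanning 10,000-fold, each plate scaled between vehicle and 100 µmol/L benzalkonium chloride controls, sDSS an adapted area-under-curve metric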
- test.parameters: 72 h

compound: CNc1nc(Nc2cn(C(C)(C)C#N)nc2C)ncc1C(F)(F)F [GNE-0877] (top concentration 1000 nM)
selective drug sensitivity score: 0
//
compound: CC[C@@](C)(Nc1ccnc(-c2c[nH]c3ncccc23)n1)C(=O)NCC(F)(F)F [Decernotinib] (top concentration 10000 nM)
selective drug sensitivity score: -3.94
//
compound: NC(=O)NO [Hydroxyurea] (top concentration 1000000 nM)
selective drug sensitivity score: 9.26
//
compound: CO[C@@H](C)Cn1c(=O)n(C)c2cnc3ccc(-c4cncc(C(C)(C)O)c4)cc3c21 (top concentration 2500 nM)
selective drug sensitivity score: 5.48
//
compound: S=C(NCc1ccc2c(c1)OCO2)N1CCN(c2ncnc3c2oc2ccccc23)CC1 [Amuvatinib] (top concentration 10000 nM)
selective drug sensitivity score: 5.96
//
compound: O=c1[nH]c(=O)n([C@H]2C[C@H](O)[C@@H](CO)O2)cc1F [Floxuridine] (top concentration 10000 nM)
selective drug sensitivity score: 26.8
//
compound: Cc1sc2c(c1C)C(c1ccc(Cl)cc1)=N[C@@H](CC(=O)Nc1ccc(OCCOCCOCCOCCNc3cccc4c3C(=O)N(C3CCC(=O)NC3=O)C4=O)cc1)c1nnc(C)n1-2 (stereo not given in full) [ARV-825] (top concentration 300 nM)
selective drug sensitivity score: 4.04
//
compound: COc1c(OCCCN2CCOCC2)ccc2c1N=C(NC(=O)c1cnc(N)nc1)N1CCN=C21 [Copanlisib] (top concentration 1000 nM)
selective drug sensitivity score: 3.18
//
compound: COc1cc2c(NC3CCN(C(C)C)CC3)nc(N3CCC(F)(F)CC3)nc2cc1OCCCN1CCCC1 [UNC0642] (top concentration 10000 nM)
selective drug sensitivity score: -1.44
//
compound: C[C@@H](Oc1cc(-n2cnc3ccc(CN4CCN(C)CC4)cc32)sc1C(N)=O)c1ccccc1C(F)(F)F (top concentration 10000 nM)
selective drug sensitivity score: 14.7
//
compound: COc1nc(N)nc2c1ncn2[C@@H]1O[C@H](CO)[C@@H](O)[C@@H]1O [Nelarabine] (top concentration 10000 nM)
selective drug sensitivity score: 4.78
//
compound: CC#CC(=O)N1CC[C@@H](n2c(=O)n(-c3ccc(Oc4ccccc4)cc3)c3c(N)ncnc32)C1 [Tirabrutinib] (top concentration 1000 nM)
selective drug sensitivity score: 3.7
//
compound: CCNCCS(=O)(=O)NC[C@@]1(c2ccccc2)SC(NC(=O)C(C)(C)C)=NN1C(=O)C(C)(C)C [Litronesib] (top concentration 1000 nM)
selective drug sensitivity score: 22.4
//
compound: CC(C)C[C@@H](C(=O)N[C@H](C(=O)OC1CCCC1)c1ccccc1)[C@H](O)C(=O)NO [Tosedostat] (top concentration 10000 nM)
selective drug sensitivity score: 3.96
//
compound: OC[C@H]1O[C@@H](n2cnc3c2N=CNC[C@H]3O)C[C@@H]1O [Pentostatin] (top concentration 10000 nM)
selective drug sensitivity score: 3.06
//
compound: CC[C@H](NC(=O)[C@H](C)NC)C(=O)N1C[C@@H](O)C[C@H]1Cc1c(-c2[nH]c3cc(F)ccc3c2C[C@@H]2C[C@H](O)CN2C(=O)[C@H](CC)NC(=O)[C@H](C)NC)[nH]c2cc(F)ccc12 [Birinapant] (top concentration 1000 nM)
selective drug sensitivity score: 14.5
//
compound: CN1CCN(c2cc(C(=O)Nc3ccc4c(c3)-c3c(c(C(N)=O)nn3-c3ccc(F)cc3)CC4)c(Cl)cn2)CC1 [PHA-408] (top concentration 10000 nM)
selective drug sensitivity score: 5.08
//
compound: CCCc1cc(C)[nH]c(=O)c1CNC(=O)c1cc(-c2ccnc(N3CCN(C)CC3)c2)cc2c1cnn2C(C)C [GSK343] (top concentration 1000 nM)
selective drug sensitivity score: 0
//
compound: CC(=O)c1cnc2ccc(-c3cc(Cl)c(O)c(Cl)c3)nc2c1N[C@H]1CC[C@H](CN(C)C)CC1 [OTS167] (top concentration 1000 nM)
selective drug sensitivity score: 6.58
//
compound: CCCC(CCC)C(=O)O [Valproic_acid] (top concentration 1000000 nM)
selective drug sensitivity score: 0
//
compound: CCCS(=O)(=O)Nc1ccc(F)c(C(=O)c2c[nH]c3ncc(-c4ccc(Cl)cc4)cc23)c1F [Vemurafenib] (top concentration 10000 nM)
selective drug sensitivity score: 0.36
//
compound: N#Cc1ccc(C(c2ccc(C#N)cc2)n2cncn2)cc1 [Letrozole] (top concentration 10000 nM)
selective drug sensitivity score: -0.04
//
compound: O=C(c1ccc(OCCN2CCCCC2)cc1)c1c(-c2ccc(O)cc2)sc2cc(O)ccc12 [Raloxifene] (top concentration 10000 nM)
selective drug sensitivity score: -2.28
//
compound: CCN(CC)CCCC(C)Nc1c2ccc(Cl)cc2nc2ccc(OC)cc12 (stereo not given) [Mepacrine] (top concentration 50000 nM)
selective drug sensitivity score: -2.9
//
compound: CN(C)c1cc2c(cc1Sc1nc3c(N)nccc3n1CCNCC(C)(C)C)OCO2 [CUDC-305] (top concentration 10000 nM)
selective drug sensitivity score: -2.48

---

- Tested on: KASUMI-10
- procedure.text: selective drug sensitivity score (sDSS, relative to normal bone marrow) (sDSS (score)); higher = more potent and effective on the cell line relative to normal bone marrow cells
- test.parameters: 72 h
Values of selective drug sensitivity score greater than or equal to 1 map to MET; values below map to NOT MET.

compound: NS(=O)(=O)NCCNc1nonc1/C(=N/O)Nc1ccc(F)c(Br)c1 [Epacadostat] (top concentration 10000 nM)
group: NOT MET
//
compound: CCOC(=O)CCNc1cc(N2CCc3ccccc3CC2)nc(-c2ccccn2)n1 [GSK-J4] (top concentration 100000 nM)
group: NOT MET
//
compound: CN(C)CCCOc1ccc(-c2ccc3ncc4c(c3c2)n(C2CCOCC2)c(=O)n4C)cn1 [AZD0156] (top concentration 1000 nM)
group: NOT MET
//
compound: CCOc1cc2ncc(C#N)c(Nc3ccc(OCc4ccccn4)c(Cl)c3)c2cc1NC(=O)/C=C/CN(C)C [Neratinib] (top concentration 1000 nM)
group: MET
//
compound: CCNCCS(=O)(=O)NC[C@@]1(c2ccccc2)SC(NC(=O)C(C)(C)C)=NN1C(=O)C(C)(C)C [Litronesib] (top concentration 1000 nM)
group: MET
//
compound: CNC(=O)c1ccccc1Nc1nc(Nc2ccc3c(c2OC)CCC[C@H](N2CCN(CCO)CC2)C3)ncc1Cl (top concentration 5000 nM)
group: MET
//
compound: CC(C)(O)CNc1nc(Nc2ccnc(C(F)(F)F)c2)nc(-c2cccc(C(F)(F)F)n2)n1 [Enasidenib] (top concentration 10000 nM)
group: NOT MET
//
compound: CN(C)CC#Cc1ccc(OCCCc2sc(N3CCc4cccc(C(=O)Nc5nc6ccccc6s5)c4C3)nc2C(=O)O)c(F)c1 (top concentration 10000 nM)
group: MET
//
compound: CN1CCN(c2ccc3nc(-c4c(N)c5c(F)cccc5[nH]c4=O)[nH]c3c2)CC1 [Dovitinib] (top concentration 10000 nM)
group: MET
//
compound: CN(C)Cc1c(C(=O)NCCOc2ccc(C(=O)NO)cc2)oc2ccccc12 [Abexinostat] (top concentration 10000 nM)
group: MET
//
compound: COCC1(CO)C(=O)C2CCN1CC2 (stereo not drawn) [APR-246] (top concentration 10000 nM)
group: NOT MET
//
compound: Nc1cc(F)ccc1NC(=O)/C=C/c1cnn(C/C=C/c2ccccc2)c1 [RGFP966] (top concentration 10000 nM)
group: MET
//
compound: FC(F)c1nc2ccccc2n1-c1nc(N2CCOCC2)nc(N2CCOCC2)n1 [ZSTK474] (top concentration 10000 nM)
group: NOT MET

---

Listing of recorded selective drug sensitivity score by entry.
- Test system: TMD5
- procedure.text: selective drug sensitivity score (sDSS, relative to normal bone marrow) (sDSS (score)); higher = more potent and effective on the cell line relative to normal bone marrow cells
- test.parameters: 72 h

molecule: NC(=O)NO [Hydroxyurea] (top concentration 1000000 nM)
selective drug sensitivity score: -3.24
--
molecule: C[C@@H](C(=O)O)c1ccc(-c2ccccc2)c(F)c1 [Tarenflurbil] (top concentration 10000 nM)
selective drug sensitivity score: 3.64
--
molecule: CS(=O)(=O)c1ccc(-c2cnc(N)c(C(=O)Nc3ccccc3)n2)cc1 [VE-821] (top concentration 10000 nM)
selective drug sensitivity score: -0.66
--
molecule: O=C(NOC[C@H](O)CO)c1ccc(F)c(F)c1Nc1ccc(I)cc1F (top concentration 1000 nM)
selective drug sensitivity score: 2.94
--
molecule: S=C(NCc1ccc2c(c1)OCO2)N1CCN(c2ncnc3c2oc2ccccc23)CC1 [Amuvatinib] (top concentration 10000 nM)
selective drug sensitivity score: 4.16
--
molecule: CC[C@@H]1C(=O)N(C)c2cnc(Nc3ccc(C(=O)N[C@H]4CC[C@H](N5CCN(CC6CC6)CC5)CC4)cc3OC)nc2N1C(C)C [Volasertib] (top concentration 1000 nM)
selective drug sensitivity score: 10.1
--
molecule: CC(C)C[C@@H](C(=O)N[C@H](C(=O)OC1CCCC1)c1ccccc1)[C@H](O)C(=O)NO [Tosedostat] (top concentration 10000 nM)
selective drug sensitivity score: 0.46
